Each recorded value in this set is attributed to patent US20160257651A1.

# System: S. pneumoniae JHSP11
# MIC values compiled below
Write the value in µg/mL as a bare number.

Recorded MIC, per entry:
Compound: CCn1cc(C(=O)O)c(=O)c2cc(F)c(N3CCNCC3)cc21
Assay system: S. pneumoniae JHSP11
Readout units: µg/mL
MIC: 128
//
Compound: C[C@H]1COc2c(N3CCN(C)CC3)c(F)cc3c(=O)c(C(=O)O)cn1c23
Assay system: S. pneumoniae JHSP11
Readout units: µg/mL
MIC: 64

[Q] What MIC appears in the records for this compound with S. pneumoniae JHSP11? CC1COc2c(N3CCN(C)CC3)c(F)cc3c(=O)c(C(=O)O)cn1c23 (stereo not drawn)
[A] 8

====

# Test system: S. aureus Mu50
# Method notes: microbe, parasite or virus in culture
# Assay type: cell-based, Staphylococcus aureus
# Test context: Staphylococcus aureus, MRSA, S. aureus Mu50, quinolone-resistant MRSA; ParC S80F, GyrA S84L
Quick reference for MIC among some molecules
Give a bare numeral; the unit µg/mL is implied.

[Q] Which MIC is listed for O=c1cc(CO)c2cc(Cl)c(-c3ccc(O)cc3)cc2n1C1CC1 [J-152] ?
[A] 0.25

[Q] Name the reported MIC value associated with the molecule O=c1cc(CO)c2cc(F)c(-c3ccc(O)cc3)c(F)c2n1C1CC1 [J-155]
[A] 0.13

[Q] Requested field: MIC. Item: O=C(O)c1c(CO)c2cc(F)c(-c3ccc(O)cc3)cc2n(C2CC2)c1=O [J-169]
[A] 8

[Q] Which MIC reading was recorded for the molecule O=c1cc(CO)c2ccc(-c3ccc(O)cc3)cc2n1C1CC1 [J-121Cp] ?
[A] 0.5

[Q] Recorded MIC of COCc1cc(=O)n(C2CC2)c2cc(-c3ccc(O)cc3)c(F)cc12 [J-175] , please.
[A] 0.5

[Q] What value of MIC has been reported for the following molecule? O=c1cc(CO)c2cc(F)c(-c3ccc(O)cc3)c(Cl)c2n1C1CC1 [J-161]
[A] 0.5

[Q] Can you look up the measured MIC of CN1CCN(c2cc3c(cc2F)c(CO)cc(=O)n3C2CC2)CC1 [J-146] for me?
[A] 16

[Q] Suppose we examine the molecule O=c1cc(CO)c2cc(F)c(-c3ccccc3)cc2n1C1CC1 [J-168] ; what MIC value has been reported?
[A] 2

[Q] Field request: MIC | item: Nc1c(CO)c2cc(F)c(-c3ccc(O)cc3)cc2n(C2CC2)c1=O [J-179]
[A] 1

====

# Test system: S. pneumoniae KBSP11
# Method notes: MIC against pneumococcus, CAMHB with 5 mass % LHB
# Format: cell-based, Streptococcus pneumoniae
# Test context: Streptococcus pneumoniae, PRSP
The reader will find reported MIC values listed item by item below.

Some solved cases for reference:
Compound: O=c1cc(CO)c2cc(F)c(-c3ccc(O)c(O)c3)cc2n1C1CC1 [J-176]
MIC: 4 µg/mL
--
Compound: CC1NCc2cc(-c3cc4c(cc3F)c(CO)cc(=O)n4C3CC3)ccc21 (stereo not shown) [J-144]
MIC: 0.25 µg/mL
--
Compound: O=c1cc(CO)c2cc(F)c(-c3ccc(O)cc3)c(Cl)c2n1C1CC1 [J-161]
MIC: 2 µg/mL

[Q] Recorded MIC for O=c1cc(CO)c2cc(F)c(-c3ccc(O)cc3)cc2n1C1CC1 [J-131CP] , please?
[A] 2 µg/mL

====

Staphylococcus aureus VRS5 (VRSA) measurements of MIC, listed per entry.

# annotated cases, reported MIC shown
Compound: C[C@H]1COc2c(N3CCN(C)CC3)c(F)cc3c(=O)c(C(=O)O)cn1c23 [LVX, levofloxacin]
MIC: > 128 µg/mL
--
Compound: NC1CCN(c2nc3c(cc2F)c(=O)c(C(=O)O)cn3-c2ccc(F)cc2F)C1 (stereo not shown) [TSX, tosufloxacin]
MIC: > 128 µg/mL
--
Compound: CCn1cc(C(=O)O)c(=O)c2cc(F)c(N3CCNCC3)cc21 [NOR, norfloxacin]
MIC: > 128 µg/mL
--
Compound: O=c1cc(CO)c2cc(F)c(-c3ccc(O)cc3)cc2n1C1CC1 [J-131CP]
MIC: ≤ 0.06 µg/mL
--
Compound: O=C(O)c1cn(C2CC2)c2cc(N3CCNCC3)c(F)cc2c1=O [CIP, ciprofloxacin]
MIC: > 128 µg/mL

[Q] Please state recorded MIC (tested on Staphylococcus aureus VRS5 (VRSA)) of CC1COc2c(N3CCN(C)CC3)c(F)cc3c(=O)c(C(=O)O)cn1c23 (stereo not shown) [OFX, ofloxacin]
[A] > 128 µg/mL

[Q] Could you share what MIC was measured for C[C@@H]1CN(c2c(F)c(N)c3c(=O)c(C(=O)O)cn(C4CC4)c3c2F)C[C@H](C)N1 [SPX, sparfloxacin] , tested on Staphylococcus aureus VRS5 (VRSA)?
[A] 128 µg/mL

====

Quick reference: MIC of the listed items.
# Test system: S. aureus Mu50
# Method notes: microbe, parasite or virus in culture
# Assay type: cell-based, Staphylococcus aureus
# Test context: Staphylococcus aureus, MRSA, S. aureus Mu50, quinolone-resistant MRSA; ParC S80F, GyrA S84L
# unit: µg/mL | format: bare number

Worked cases, MIC given:
Molecule: NOCc1cc(=O)n(C2CC2)c2cc(-c3ccc(O)cc3)c(F)cc12
Assay system: S. aureus Mu50
MIC / µg/mL: 1

Molecule: O=c1cc(CO)c2cc(F)c(N3CCC(O)CC3)cc2n1C1CC1
Assay system: S. aureus Mu50
MIC / µg/mL: 16

Molecule: O=c1cc(O)c2ccc(-c3ccc(O)cc3)c(OC(F)F)c2n1C1CC1
Assay system: S. aureus Mu50
MIC / µg/mL: 4

Molecule: O=c1cc(CO)c2ccc(-c3ccc(O)cc3)c(F)c2n1C1CC1
Assay system: S. aureus Mu50
MIC / µg/mL: 0.25

Molecule: COc1c(-c2ccc(O)cc2)c(F)cc2c(CO)cc(=O)n(C3CC3)c12
Assay system: S. aureus Mu50
MIC / µg/mL: 0.5

[Q] Item under review: NCc1cc(=O)n(C2CC2)c2cc(-c3ccc(O)cc3)c(F)cc12 . Reported MIC?
[A] 0.5

====

// S. pneumoniae JHSP11 MIC records
Numeric answer only, unit µg/mL assumed.

[Q] Request body: readout MIC, system S. pneumoniae JHSP11, query O=c1cc(CO)c2cc(F)c(-c3ccc(O)cc3)cc2n1C1CC1 [J-131CP] . Return the value.
[A] 4

[Q] Observed MIC on S. pneumoniae JHSP11 for NC1CCN(c2nc3c(cc2F)c(=O)c(C(=O)O)cn3-c2ccc(F)cc2F)C1 (stereo not shown) , please.
[A] 8

====

# Tested on: E. faecalis 36-15722
# Method notes: MIC against Enterococcus bacteria
# Format: cell-based, Enterococcus faecalis
# Test context: Enterococcus faecalis, 3615722; E. faecalis 36-15722, quinolone-resistant; ParC 80Ile, GyrA 84Ile; read-out: MIC
The label is True for MIC below 2 µg/mL and False for MIC equal to or exceeding 2 µg/mL.

Compound: CCn1cc(C(=O)O)c(=O)c2cc(F)c(N3CCNCC3)cc21
Group: False
//
Compound: NCc1cc(=O)n(C2CC2)c2cc(-c3ccc(O)cc3)c(F)cc12
Group: False
//
Compound: C[C@H]1COc2c(N3CCN(C)CC3)c(F)cc3c(=O)c(C(=O)O)cn1c23
Group: False
//
Compound: O=c1cc(CO)c2cc(F)c(-c3ccc(O)cc3)cc2n1C1CC1 [J-131CP]
Group: True
//
Compound: CC1COc2c(-c3ccc(O)cc3)c(F)cc3c(CO)cc(=O)n1c23 (centres unmarked)
Group: True

Now examine the next entry.
[Q] # strict comparison: is reported MIC < 2 µg/mL? input = O=c1cc(CO)c2cc(F)c(-c3ccc(O)cc3)c(Cl)c2n1C1CC1
[A] True

====

# System: E. faecium RPR2
# Method notes: MIC against Enterococcus bacteria
# Format: cell-based, Enterococcus faecium
# Test context: Enterococcus faecium, RPR2
Measured attribute: MIC (µg/mL)
Give your result in µg/mL as a bare value.

Please review the following examples before continuing.
Compound: O=c1cc(CO)c2cc(F)c(-c3ccc(O)cc3)c(F)c2n1C1CC1
Assay system: E. faecium RPR2
MIC / µg/mL: 8

Compound: CC1COc2c(-c3ccc(O)cc3)c(F)cc3c(CO)cc(=O)n1c23 (stereo not drawn)
Assay system: E. faecium RPR2
MIC / µg/mL: 16

Compound: O=c1cc(CO)c2cc(F)c(-c3ccc(O)c(O)c3)cc2n1C1CC1
Assay system: E. faecium RPR2
MIC / µg/mL: 4

Compound: CC1NCc2cc(-c3cc4c(cc3F)c(CO)cc(=O)n4C3CC3)ccc21 (stereo not drawn)
Assay system: E. faecium RPR2
MIC / µg/mL: 4

Compound: O=c1cc(CO)c2ccc(-c3ccc(O)cc3)c(F)c2n1C1CC1
Assay system: E. faecium RPR2
MIC / µg/mL: 8

Compound: O=c1cc(CO)c2cc(F)c(-c3ccc(O)cc3)c(Cl)c2n1C1CC1
Assay system: E. faecium RPR2
MIC / µg/mL: 8

Compound: NCc1cc(=O)n(C2CC2)c2cc(-c3ccc(O)cc3)c(F)cc12
Assay system: E. faecium RPR2
MIC / µg/mL: 8

Compound: Nc1ccc(-c2cc3c(cc2F)c(CO)cc(=O)n3C2CC2)cc1 [J-132CP]
Assay system: E. faecium RPR2
MIC / µg/mL: 8

Alright, here's another compound for you.
[Q] Report MIC for O=c1cc(CO)c2cc(F)c(-c3ccc(O)cc3)cc2n1C1CC1 [J-131CP] please.
[A] 4
